In what follows, each item is paired with its GI50 for HCT-15.

| compound | GI50 |
| --- | --- |
| C(=N\C12CC3CC(CC(C3)C1)C2)/C1CCCCC1 | > 100 µM |
| CCN1C(=O)C(=CN)C(=O)N(CC)C1=O | > 100 µM |
| CC(=O)N(C)C(C(=O)N1CC(C)CC1C(=O)N(C)C1C(=O)NC(CC(C)C)C(=O)N2CC(C)CC2C(=O)NC(CC(C)C)C(=O)N(C)C(C(C)C)C(=O)N2CCCC2C(=O)N(C)C(CC(C)C)C(=O)NCC(=O)OC1C)C(C)C (stereo not drawn) | > 100 µM |
